system: Cav1.2b; experiment: Antagonist activity at Cav1.2b in K+-depolarized guinea pig ileum longitudinal smooth muscle assessed as inhibition of calcium-induced contraction at 5 x 10^-6 M relative to control; format: tissue-based, Cavia porcellus; settings: read-out: Activity
measuredProperty: inhibition at 5 µM (%)
Report the figure in % without appending any unit label.

Q) Suppose we examine the compound CCO[C@]1(c2ccc(Br)cc2)Sc2ccccc2-n2c1noc2=O ; what inhibition at 5 µM value has been reported?
A) 78

---

species: Cavia porcellus; test: Antagonist activity at Cav1.2a in K+-depolarized guinea pig aortic strips assessed as inhibition of calcium-induced contraction at 10^-4 M relative to control; assay type: tissue-based; parameters: scale not given: the % may be the effect or the level left; details: Aorta
// assign y if Activity falls strictly below 9%, else n (ties count as n)

A selection of reference data follows.
CCOC1(c2ccc(Br)cc2)Sc2ccccc2-n2c1noc2=O (racemic)
y
COc1ccc([C@@H]2Sc3ccccc3N(CCN(C)C)C(=O)[C@@H]2OC(C)=O)cc1
n
O=c1onc2n1-c1ccccc1SC2(OCC(F)(F)F)c1ccc(Br)cc1 (racemic)
n
CCOC1(c2ccc(Br)cc2)SC=C(C)n2c1noc2=O (racemic)
n
O=c1onc2n1-c1ccccc1S[C@]2(OCC(F)(F)F)c1ccc(Br)cc1
y
CC1=CS[C@@](OCC(F)(F)F)(c2ccc(Br)cc2)c2noc(=O)n21
n
CCO[C@@]1(c2ccc(Br)cc2)SC=C(C)n2c1noc2=O
y
CCO[C@]1(c2ccc(Br)cc2)SC=C(C)n2c1noc2=O
n

Now look at this entry.
Q) Say whether its Activity is strictly beneath 9%. Entry: CC1=CSC(OCC(F)(F)F)(c2ccc(Br)cc2)c2noc(=O)n21 (racemic)
A) n
